Target: T1, rhIL-1RAcP/Fc Chimera (human, UniProt Q9NPH3 21-359)
T1 construct: also called P013_03; P013-03
T1 sequence (looked up): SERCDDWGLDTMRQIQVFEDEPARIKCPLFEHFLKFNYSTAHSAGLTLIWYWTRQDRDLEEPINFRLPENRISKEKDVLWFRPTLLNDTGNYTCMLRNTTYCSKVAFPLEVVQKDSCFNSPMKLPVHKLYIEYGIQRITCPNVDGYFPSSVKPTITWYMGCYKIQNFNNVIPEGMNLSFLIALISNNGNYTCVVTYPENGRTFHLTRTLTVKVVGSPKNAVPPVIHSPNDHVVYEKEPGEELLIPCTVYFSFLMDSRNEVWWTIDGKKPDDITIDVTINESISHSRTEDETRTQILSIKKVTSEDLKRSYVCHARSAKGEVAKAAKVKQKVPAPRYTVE
Experiment: ELISA, recombinant purified mAb
measure name: log10 EC50 (log10 of the value in µg/mL)
Answers are given as log10 of EC50 in µg/mL.

Consider the following illustrative entries.
binder: P013.S.02.B.F04 (antibody, V domains shown, rabbit monoclonal antibody; also called P013.A.00109.B02) VH: QEQLVESGGDLVKPEGSLTLTCTASGFSFSSNYWICWVRQAPGKGLEWIACIYTSTDTTYYPNWAKGRFTISKTSSTTVTLQMTSLTAADTATYFCARDLLVVTSFNLWGQGTLVTVSS VL: ALVMTQTPSPVSAAVGGTVTINCQASEDIYSNLAWFQQKPGQPPKLLIYGASTLASGVPSRFSGSGSGTEFTLTISGVQSDDAATYYCLGVCTDISADDLYNTFGGGTEVVVK
quantitative readout: -0.30
//
binder: P013.S.02.B.C04 (antibody, V domains shown, rabbit monoclonal antibody; also called P013.A.00085.H07) VH: QQLEQSGGGLVKPGGSLELCCKASGFSLSSSYWICWVRQAPGKGLEWIGCIYAGSSGSTYYANWVNGRFTLSRDIDQSTGCLQLSSLTAADTAMYYCARSIVDFSSGWGDLWGQGTLVTVSS VL: ALVMTQTPSPVSAAVGGTVTINCQASEDIYSNLAWYQQKPGQPPKLLMYGVSTLASGVPSRFSDSGSGTEFTLTISGLQSDDAATYYCLGVYTYISDVYYTFGGGTEVVVK
quantitative readout: -0.12
//
binder: P013.S.01.B.B02 (antibody, V domains shown, rabbit monoclonal antibody; also called P013.A.00014.B03) VH: LEQSGGGAEGGLVKPGGSLELCCKASGFSLSSSYWICWVRQAPGKGLEWIGCIYTGSSGITYYASWVNGRFTLSRDIDQSTGCLQLNSLTAADTAMYYCAKDGPSTLFNFWGQGTLVTVSS VL: ALVMTQTPSPVSAAVGGTVTINCQASEDIYSNLAWFQQKPGQPPKLLIYRASTLASGVPSRFKGSGSGTEFTLTISGLQSDDAATYYCLGVYTYPSADNAFGGGTEVVVR
quantitative readout: -0.76
//
binder: P013.S.01.B.G03 (antibody, V domains shown, rabbit monoclonal antibody; also called P013.A.00030.C03) VH: QEQLVESGGGLVQPEGSLTLTCKASGFDFSSNYYMCWVRQAPGKGLELIACIYTNSGNTWSASWAKGRFTISKTSSTTVTLQMTSLTAADTATYFCARDLNYPDTSNLWGQGTLVTVSS VL: DIVMTQTPASVEAAVGGTVTIKCQASQSIGYYLAWYQQKPGQPPKLLISRASTLASGVPSRFKGSGSGTQFTLTISDLESADVATYYCQSYYNSDSDAFGGGTEVVVK
quantitative readout: -0.84
//
binder: P013.S.01.B.E04 (antibody, V domains shown, rabbit monoclonal antibody; also called P013.A.00109.D07) VH: QSVEESGGRLVTPGTPLTLTCTVSGIDLNSNGINWVRQAPGKGLEWIGYIGAGDITYCASWAKGRFTISKTSSTTVDLKITSLTTEDTATYFCARWGPGALDLWGQGTLVTVSS VL: AQVLTQTASSVSATVGGTVTISCQSSQSVYNNNYLSWYQQKPGQPPKLLIYKASTLASGVPLRFSGSGSGTQFTLTISGVQSDDAATYYCAGFYETTDVGFGGGTEVVVK
quantitative readout: -1.14

stdin: # get_value(readout='log10 EC50', item= P013.S.02.B.C03 (antibody, V domains shown, rabbit monoclonal antibody; also called P013.A.00085.G07) VH: QSLEESGGRLVTPGTPLTLTCTVSGIDLSSYAMGWVRQAPGKGLEYIGIISNSGTTYYASWAKGRFTISKTSSTTVDLKMTSPTTEDTATYFCARDRYANTHGIFSLWGQGTLVTVSS VL: DIVMTQTPASVSAPVGGTVTINCQASESIYSDLAWYQQKPGQPPKLLISFVATLESGVPSRFKGSGSGTEFTLTISDLESADAATYYCQCTYGGSGSGNGAAFGGGTEVVVK )
stdout: -0.07

stdin: # get_value(readout='log10 EC50', item= P013.S.01.B.E06 (antibody, V domains shown, rabbit monoclonal antibody; also called P013.A.00030.F07) VH: QSLEESGGDLVKPGASLTLTCTASGFSFSSTYYMCWVRQAPGKGLEWIACIYAGSSGSTYYASWAKGRFTISKTSSTTVTLQMTSLTAADTATYFCARVDGSSSGSWDLWGPGTLVTVSS VL: AIEMTQTPSSVSAAVGGTVTINCQASQNIYSNLAWYQQKPGQRPKLLIYAASLLASGVPSRFKGNGSGTEYTLTISDLESADAATYYCQGAVYSGNTEWAFGGGTEVVVK )
stdout: -0.35

stdin: # get_value(readout='log10 EC50', item= P013.S.01.B.D06 (antibody, V domains shown, rabbit monoclonal antibody; also called P013.A.00029.D02) VH: QSLEESGGDLVKPGASLTLTCTASGFSFSSSYYMCWVRQAPGKGLEWIACIYAGSSGVTYYASWAKGRFTISDTSSTTVTLQMTSLTAADTATYFCASETDGNYFNLWGPGTLVTVSS VL: ALVMTQTPSPVSAAVGGTVTINCQASEDIYSNLAWFQQKPGQPPKLLIYRASTLASGVPSRFSGSGSGTEFTLTISGLQSDDAATYYCLGVYTYSTDIHAFGGGTEVVVK )
stdout: -1.28

stdin: # get_value(readout='log10 EC50', item= P013.S.01.B.H03 (antibody, V domains shown, rabbit monoclonal antibody; also called P013.A.00045.A02) VH: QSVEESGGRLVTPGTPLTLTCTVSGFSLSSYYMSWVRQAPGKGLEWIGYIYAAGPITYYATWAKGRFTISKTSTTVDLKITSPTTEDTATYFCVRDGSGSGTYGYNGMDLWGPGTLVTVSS VL: AYDMTQTPASVEAAVGGTVNIKCQASQSISNWLAWYQQKPGQPPKLLIYRASTLASGVSSRFKGSGSGTQFTLTISGVESADAATYYCQQGASTTDVDNVFGGGTEVVVK )
stdout: -0.98

stdin: # get_value(readout='log10 EC50', item= P013.S.01.B.A06 (antibody, V domains shown, rabbit monoclonal antibody; also called P013.A.00133.B12) VH: QSLEESGGRLVTPGTPLTLSCKVSGFSLSSYDMSWVRQTPGKGLEWIGTIYIGGTTAYASWPKGRFTISKTSTTVDLKITSPTKEDTATYFCARLQGANYYNSLALWGQGTLVTVSS VL: DVVMTQTPASVSEPVGGTVTIKCQASQSIYSFLSWYQQKPGQPPKLLIYAASDLESGVPSRFSGSGYGTEFTLTISDLESADAATYYCQCNYIIDYGAFGGGTEVVVK )
stdout: -1.57

Numbers sourced from patent US20190106487A1.
